tested on: Enterobacter aerogenes (Ea); assay: Minimum inhibitory concentration (MIC), bacteria in nutrient agar; type: cell-based, Enterobacter aerogenes ATCC 13048; settings: Klebsiella aerogenes; nutrient agar pH 6.8, 30° C., 48 hours
Assay endpoint: MIC (µg/mL)

molecule="N#CSCSc1nnnn1-c1ccc(F)cc1 [V]" experimental_system="Enterobacter aerogenes (Ea)" assay_endpoint=MIC u=µg/mL reading_qualifier== endpoint_result=250
molecule="N#CSCSc1nnnn1-c1ccc(Br)cc1 [IV]" experimental_system="Enterobacter aerogenes (Ea)" assay_endpoint=MIC u=µg/mL reading_qualifier== endpoint_result=500
molecule="Cc1cccc(-n2nnnc2SCSC#N)c1 [VI]" experimental_system="Enterobacter aerogenes (Ea)" assay_endpoint=MIC u=µg/mL reading_qualifier== endpoint_result=500
molecule="N#CSCSc1nnnn1-c1ccc(C#N)cc1 [XII]" experimental_system="Enterobacter aerogenes (Ea)" assay_endpoint=MIC u=µg/mL reading_qualifier== endpoint_result=500
molecule="COc1ccc(-n2nnnc2SCSC#N)cc1 [VIII]" experimental_system="Enterobacter aerogenes (Ea)" assay_endpoint=MIC u=µg/mL reading_qualifier== endpoint_result=250
molecule="N#CSCSc1nnnn1-c1ccccc1 [Example I]" experimental_system="Enterobacter aerogenes (Ea)" assay_endpoint=MIC u=µg/mL reading_qualifier== endpoint_result=250
molecule="N#CSCSc1nnnn1-c1ccc(Cl)cc1 [III]" experimental_system="Enterobacter aerogenes (Ea)" assay_endpoint=MIC u=µg/mL reading_qualifier== endpoint_result=25
molecule="N#CSCSc1nnnn1-c1ccc([N+](=O)[O-])cc1 [XI]" experimental_system="Enterobacter aerogenes (Ea)" assay_endpoint=MIC u=µg/mL reading_qualifier=> endpoint_result=100
molecule="N#CSCSc1nnnn1-c1cccc(Cl)c1 [II]" experimental_system="Enterobacter aerogenes (Ea)" assay_endpoint=MIC u=µg/mL reading_qualifier== endpoint_result=500
molecule="Cc1ccc(-n2nnnc2SCSC#N)cc1 [VII]" experimental_system="Enterobacter aerogenes (Ea)" assay_endpoint=MIC u=µg/mL reading_qualifier=> endpoint_result=500
molecule="N#CSCSc1nnnn1C1CCCCC1 [X]" experimental_system="Enterobacter aerogenes (Ea)" assay_endpoint=MIC u=µg/mL reading_qualifier== endpoint_result=500
molecule="CC(C)(C)c1ccc(-n2nnnc2SCSC#N)cc1 [IX]" experimental_system="Enterobacter aerogenes (Ea)" assay_endpoint=MIC u=µg/mL reading_qualifier== endpoint_result=500

The measured values listed here are drawn from patent US5455222A.
